Numbers sourced from patent US10351575B2.

- assay_target: His-tagged recombinant human TrkA (Homo sapiens (Human))
- Sequence (P04629 440-796): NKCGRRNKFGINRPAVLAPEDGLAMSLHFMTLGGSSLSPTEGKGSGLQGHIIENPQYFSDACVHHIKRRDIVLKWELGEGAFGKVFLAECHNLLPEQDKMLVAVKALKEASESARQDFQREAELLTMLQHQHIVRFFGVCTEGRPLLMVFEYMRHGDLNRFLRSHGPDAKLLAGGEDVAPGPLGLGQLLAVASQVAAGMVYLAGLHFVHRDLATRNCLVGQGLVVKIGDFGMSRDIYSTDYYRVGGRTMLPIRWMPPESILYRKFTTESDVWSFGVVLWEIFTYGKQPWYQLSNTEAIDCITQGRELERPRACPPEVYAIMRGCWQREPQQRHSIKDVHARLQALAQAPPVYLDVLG
- assay_protocol: TrkA LanthaScreen Eu Kinase Binding Assay
- recorded_conditions: averaged IC50; TR-FRET binding, 60 min, 22° C.; read-out: TrkA Enzyme IC50
- Protocol: TrkA binding activity was determined in a TrkA LanthaScreen™ Eu Kinase Binding Assay. […] After 60-minute incubation at 22° C., the reaction was measured using the EnVision mutlimode plate reader (PerkinElmer) via TR-FRET dual wavelength detection at […]. The percent of control was calculated using a ratiometric emission factor. The IC50 values were determined by fitting a four parameter model to the percent of control data.
measurement_kind: IC50

Here's what some known entries look like.
input: Determine from records and report IC50 for Cc1c(-c2ccc(=O)n(C)c2)nn(-c2ccccc2)c1NC(=O)NC1CCN(C)c2c(F)cccc21 (stereo not drawn)
output: 100 to 1000 nM

input: Determine from records and report IC50 for Cc1c(OC[C@H]2CN(C(C)C)CCO2)nn(-c2ccccc2)c1NC(=O)N[C@@H]1c2ccccc2C(C)(C)C[C@H]1O
output: < 100 nM

input: Determine from records and report IC50 for Cc1nn(-c2ccccc2)c(NC(=O)N[C@@H]2c3ccccc3CCC[C@H]2O)c1C (relative stereo)
output: 100 to 1000 nM

input: Determine from records and report IC50 for Cc1c(-c2cnn(C)c2)nn(-c2ccccc2)c1NC(=O)N[C@@H]1c2cc(Cl)ccc2C[C@H]1O
output: < 100 nM

input: Determine from records and report IC50 for CO[C@H]1[C@@H](O)[C@H](NC(=O)Nc2c(C)c(-c3cnn(C)c3)nn2-c2ccccc2)c2ccccc2C1(C)C
output: < 100 nM

More entries:
input: Determine from records and report IC50 for CCOc1ncc(-c2nn(-c3ccccc3)c(NC(=O)N[C@@H]3c4ccccc4C[C@H]3O)c2C)cn1
output: < 100 nM

input: Determine from records and report IC50 for Cc1nn(-c2ccccc2)c(NC(=O)N[C@@H]2c3ccccc3CC[C@H]2O)c1C (relative stereo)
output: < 100 nM

input: Determine from records and report IC50 for CC(=O)N1Cc2ccccc2C(NC(=O)Nc2c3c(nn2-c2ccccc2)CCC3)C1 (stereo not drawn)
output: 100 to 1000 nM

input: Determine from records and report IC50 for Cc1c(-c2cnn(C)c2)nn(-c2ccccc2)c1NC(=O)N[C@@H]1c2cc(F)c(F)cc2C(C)(C)C[C@H]1O
output: < 100 nM

input: Determine from records and report IC50 for Cc1nn(-c2ccccc2)c(NC(=O)NC2CN(CC(F)(F)F)Cc3ccccc32)c1C(N)=O (stereo not drawn)
output: < 100 nM
